biological target: FLT-3 (Homo sapiens); assay: FLT-3 inhibition assay, radiometric filter-binding; type: biochemical; conditions: read-out: FLT-3 Ki value
Sequence (P36888 27-993, species assumed): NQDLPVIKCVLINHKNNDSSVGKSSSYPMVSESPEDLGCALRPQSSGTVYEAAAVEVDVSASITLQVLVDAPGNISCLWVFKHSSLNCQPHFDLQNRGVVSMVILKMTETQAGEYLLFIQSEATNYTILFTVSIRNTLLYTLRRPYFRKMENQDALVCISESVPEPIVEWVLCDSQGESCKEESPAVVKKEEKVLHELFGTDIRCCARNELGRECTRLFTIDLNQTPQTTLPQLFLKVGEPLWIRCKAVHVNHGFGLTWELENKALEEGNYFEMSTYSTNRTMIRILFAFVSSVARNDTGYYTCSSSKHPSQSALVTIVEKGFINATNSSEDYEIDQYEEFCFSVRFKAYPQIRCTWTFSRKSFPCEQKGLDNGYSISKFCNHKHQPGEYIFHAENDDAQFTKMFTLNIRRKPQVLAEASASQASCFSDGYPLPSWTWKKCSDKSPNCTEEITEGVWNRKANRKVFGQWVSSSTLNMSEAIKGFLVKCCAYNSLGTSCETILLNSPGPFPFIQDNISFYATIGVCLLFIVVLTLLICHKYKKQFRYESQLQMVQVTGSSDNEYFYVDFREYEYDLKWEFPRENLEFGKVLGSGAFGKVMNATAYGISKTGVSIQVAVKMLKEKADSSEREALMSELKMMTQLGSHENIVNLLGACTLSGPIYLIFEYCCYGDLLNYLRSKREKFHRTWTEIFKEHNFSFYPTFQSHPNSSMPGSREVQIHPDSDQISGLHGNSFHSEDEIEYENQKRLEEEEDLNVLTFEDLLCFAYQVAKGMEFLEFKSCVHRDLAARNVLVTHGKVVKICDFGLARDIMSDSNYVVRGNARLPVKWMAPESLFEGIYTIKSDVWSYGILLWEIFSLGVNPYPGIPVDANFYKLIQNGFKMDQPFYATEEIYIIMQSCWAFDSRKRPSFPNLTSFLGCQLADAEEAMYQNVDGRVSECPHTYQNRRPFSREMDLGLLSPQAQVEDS
pKi: −log10 of the molar value.
Give pKi for every item shown.

Need pKi of Cc1cc(Nc2cc(N3CC(F)(C4CC4)C3)nc(Sc3ccc(NC(=O)[C@H]4CCCN4C(C)C)cc3)n2)[nH]n1 [Compound 193] , thanks.
6.00 to 6.82

Need pKi of CCC(=O)Nc1ccc(Sc2nc(Nc3cc(C)n[nH]3)cc(N3CC(C)(NC(C)(C)C)C3)n2)cc1 [Compound 80] , thanks.
6.82 to 7.30

Need pKi of Cc1cc(Nc2cc(N3CCC3)nc(Sc3ccc(N)cc3)n2)[nH]n1 [Compound 108] , thanks.
≥ 7.30

Need pKi of CC1=NN=C(Nc2cc(N3CCC3)nc(Sc3ccc(NC(=O)c4ccccc4)cc3)n2)C1 [Compound 52] , thanks.
6.00 to 6.82

Need pKi of Cc1cc(Nc2cc(N3CCC3)nc(Sc3ccc(NS(C)(=O)=O)cc3)n2)[nH]n1 [Compound 150] , thanks.
≥ 7.30

Need pKi of CC1=NN=C(Nc2cc(N3CCC3)nc(Sc3ccc(NC(=O)c4ccccc4Cl)cc3)n2)C1 [Compound 5] , thanks.
6.82 to 7.30

Need pKi of CCC(=O)Nc1ccc(Sc2nc(Nc3cc(C)n[nH]3)cc(N3CC(C)(N4CCCC4)C3)n2)cc1 [Compound 89] , thanks.
≥ 7.30

* * *

molecular target: Aurora-1 (Aurora B) (Homo sapiens, UniProt Q96GD4); experiment: Aurora-1 (Aurora B) inhibition assay (radiometric); format: biochemical; conditions: read-out: Aurora B kinase Ki value
Sequence (Q96GD4 whole entry): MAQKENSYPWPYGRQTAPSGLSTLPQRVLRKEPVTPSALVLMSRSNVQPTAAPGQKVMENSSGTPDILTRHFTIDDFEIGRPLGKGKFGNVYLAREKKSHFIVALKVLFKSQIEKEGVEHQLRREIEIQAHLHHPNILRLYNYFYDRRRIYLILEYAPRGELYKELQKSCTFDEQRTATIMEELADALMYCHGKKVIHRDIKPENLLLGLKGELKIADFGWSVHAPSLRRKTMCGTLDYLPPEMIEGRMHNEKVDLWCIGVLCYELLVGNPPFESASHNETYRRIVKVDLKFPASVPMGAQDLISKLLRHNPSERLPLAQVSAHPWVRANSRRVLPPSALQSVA
pKi: −log10 of the molar value.
recorded_endpoint: pKi

Need pKi of Cc1cc(Nc2cc(N3CC(N4CCOCC4)C3)nc(Sc3ccc(NC(=O)C4(C(F)(F)F)CC4)cc3)n2)[nH]n1 [Compound 191] , thanks.
≥ 8.00

Need pKi of Cc1cc(Nc2cc(N3CCC3)nc(Sc3ccc(NC(=O)C(F)(F)F)cc3)n2)[nH]n1 [Compound 158] , thanks.
≥ 8.00

Need pKi of CC(=O)Nc1cccc(Sc2nc(Nc3cc(C)n[nH]3)cc(N3CC(F)(C4CC4)C3)n2)c1 [Compound 188] , thanks.
7.30 to 8.00

Need pKi of COC(=O)c1ccc(Sc2nc(Nc3cc(C4CC4)[nH]n3)cc(N3CC(O)(C4CC4)C3)n2)cc1 [Compound 106] , thanks.
≥ 8.00

Need pKi of CCC(=O)Nc1ccc(Sc2nc(Nc3cc(C4CC4)n[nH]3)cc(N3CC(C)(O)C3)n2)cc1 [Compound 76] , thanks.
≥ 8.00

Need pKi of CCOC1CN(c2cc(Nc3cc(C)[nH]n3)nc(Sc3ccc(NC(=O)c4ccccc4Cl)cc3)n2)C1 [Compound 37] , thanks.
≥ 8.00

Need pKi of Cc1cc(Nc2cc(CN3CCC3)nc(Sc3ccc(NC(=O)c4ccccc4C(F)(F)F)cc3)n2)[nH]n1 [Compound 132] , thanks.
7.30 to 8.00

Need pKi of Cc1cc(Nc2cc(N3CC(C)(C#N)C3)nc(Sc3ccc(NC(=O)c4ccccc4C(F)(F)F)cc3)n2)[nH]n1 [Compound 122] , thanks.
≥ 8.00

Need pKi of Cc1cc(Nc2cc(N3CC(F)(C4CC4)C3)nc(Sc3ccc(-c4ncc(C)o4)cc3)n2)[nH]n1 [Compound 175] , thanks.
5.70 to 7.30

Need pKi of Cc1cc(Nc2cc(N3CC(OC(C)C)C3)nc(Sc3ccc(NC(=O)c4ccccc4Cl)cc3)n2)n[nH]1 [Compound 38] , thanks.
≥ 8.00

Need pKi of Cc1ccc(C(=O)Nc2ccc(Sc3nc(Nc4cc(C)[nH]n4)cc(N4CCC4)n3)cc2)cc1 [Compound 28] , thanks.
7.30 to 8.00

Need pKi of Cc1ccc(C(=O)Nc2ccc(Sc3nc(Nc4cc(C)n[nH]4)cc(N4CCC4)n3)cc2)cn1 [Compound 145] , thanks.
5.70 to 7.30

Need pKi of CCC(=O)Nc1ccc(Sc2nc(C#CC(C)(C)N3CCC3)cc(Nc3cc(C)n[nH]3)n2)cc1 [Compound 77] , thanks.
5.70 to 7.30

Where do the numbers come from? From patent US8637511B2.
